- target.of.assay: human GCS (Homo sapiens, UniProt Q16739)
- Construct: endogenous in cells; host or cells: MCF-7
- Sequence (Q16739 whole entry): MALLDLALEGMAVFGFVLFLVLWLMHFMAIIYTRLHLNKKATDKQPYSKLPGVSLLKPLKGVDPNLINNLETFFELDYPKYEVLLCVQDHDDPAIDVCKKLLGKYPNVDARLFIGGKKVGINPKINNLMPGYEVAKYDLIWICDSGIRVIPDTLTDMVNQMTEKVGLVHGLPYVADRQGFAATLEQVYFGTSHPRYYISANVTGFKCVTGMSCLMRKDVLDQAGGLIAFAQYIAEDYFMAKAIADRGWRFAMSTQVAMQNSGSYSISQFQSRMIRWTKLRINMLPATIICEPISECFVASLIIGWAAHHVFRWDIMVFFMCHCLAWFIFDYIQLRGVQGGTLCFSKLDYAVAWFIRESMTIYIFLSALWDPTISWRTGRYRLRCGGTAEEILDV
- assay.overview: Cell-based IC50 for GCS inhibition by measuring glucosylceramide (GlcCer) depletion
- cond: MCF-7 cells cultured 5-7 days with compound; GlcCer depletion by HPTLC; read-out: Inhibition of GCS Cellular-based (IC50 μM)
recorded.metric: IC50

Q: Lookup: IC50 / human GCS (Homo sapiens, UniProt Q16739) / CCCCCOc1ccc(CN2C[C@H](O)[C@@H](O)[C@H](O)[C@@H]2CO)cc1 [Example 1]
A: ~0.015 µM
